Reference source: paper PMC11850406

# study_system: HLA-A1102 (Homo sapiens, UniProt P04439, A114D/D185E/E176A/E43K/F33Y/L180Q/S129P/T187R)
# experimental_details: cell-based
# Type: binding
# condition_summary: A1102; peptide 5 μM vs FITC-labeled reference peptide 300 nM, 24 h, 4°C, flow cytometry; read-out: 5-μM inhibition (%)
Where no end group is shown, it is not given here.
Each entry gets FALSE if its inhibition at 5 µM stays under 4%, and TRUE if its inhibition at 5 µM is 4% or above.

Solved cases (3 shown):
query_sequence="TSLPKQEQK [Peptide P31]" assigned_class=TRUE
query_sequence="MAHQPLSPR [Peptide P111]" assigned_class=TRUE
query_sequence="ATLWCVHQR [Peptide P34]" assigned_class=FALSE

Reported inhibition at 5 µM at or above 4%? SILDIRQGPK [Peptide P33]
TRUE

Reported inhibition at 5 µM at or above 4%? MVHQPISPR [Peptide P103]
FALSE

Reported inhibition at 5 µM at or above 4%? FVNTPPLVK [Peptide P44]
TRUE

###

# study_system: HLA-A0207 (Homo sapiens, UniProt P04439, D140Y/D185E/D98H/E176V/E277Q/G131W/G231S/I119V/I121R/I166T/I218V/L300P/L318F/N151K/N90K/P208A/P217A/Q86G/Q94H/R138H/R169H/T345S/Y123C)
# Construct: expressed in transfected cells; host or cells: HMy2.CIR
# experimental_details: Peptide competitive binding assay, HMy2.CIR cells expressing A0207
# condition_summary: peptide 5 μM vs FITC-labeled reference peptide 300 nM, 24 h, 4°C, flow cytometry
Listing of entries alongside the reported 5-μM inhibition (%).
// return numeric value only (unit: %, not printed)

Worked set:
query_sequence="YVDRFFKTL [Peptide P76]" measured_number=11.90
query_sequence="SLFNTVATL [Peptide P10]" measured_number=0.00
query_sequence="LVDTIAIAV [Peptide P77]" measured_number=9.36
query_sequence="YQLEKDPIV [Peptide P11]" measured_number=5.57
query_sequence="YMEAEVIPA [Peptide P82]" measured_number=13.67
query_sequence="VLDVGDAYF [Peptide P81]" measured_number=0.00
query_sequence="QLTEVVQKV [Peptide P80]" measured_number=20.67

With those in mind, consider the next sequence.
Measured 5-μM inhibition (%) of YLKDQKFLGL [Peptide P78] : 11.50

###

# study_system: HLA-A3303 (Homo sapiens, UniProt P04439, A270S/D185E/E176V/E277Q/E87N/F33T/G231S/H175R/I121M/I218V/I322F/K168Q/L300P/L318F/M331R/P217A/Q86R/Q94H/R138Q/T323A/T345S/T97I/V358M)
# experimental_details: Peptide competitive binding assay, HMy2.CIR cells expressing A3303
# condition_summary: A3303; peptide 5 μM vs FITC-labeled reference peptide 300 nM, 24 h, 4°C, flow cytometry
Where no end group is shown, it is not given here.
Listing of entries alongside the reported inhibition at 5 µM.
// return numeric value only (unit: %, not printed)

Worked set:
query_sequence="MTKILEPFR [Peptide P102]" measured_number=69.5
query_sequence="DAWEKIRLR [Peptide P104]" measured_number=71.8

With those in mind, consider the next sequence.
Measured inhibition at 5 µM of MVHQPISPR [Peptide P103] : 70.2
